Target: T1, Recombinant human glypican-3 (aa 1-559), His-tagged, R&D Systems (human, UniProt P51654 25-559)
T1 construct: also called huGPC3; Hu GPC3-His
T1 sequence (P51654 other isoform, or with tags, fused parts or gaps): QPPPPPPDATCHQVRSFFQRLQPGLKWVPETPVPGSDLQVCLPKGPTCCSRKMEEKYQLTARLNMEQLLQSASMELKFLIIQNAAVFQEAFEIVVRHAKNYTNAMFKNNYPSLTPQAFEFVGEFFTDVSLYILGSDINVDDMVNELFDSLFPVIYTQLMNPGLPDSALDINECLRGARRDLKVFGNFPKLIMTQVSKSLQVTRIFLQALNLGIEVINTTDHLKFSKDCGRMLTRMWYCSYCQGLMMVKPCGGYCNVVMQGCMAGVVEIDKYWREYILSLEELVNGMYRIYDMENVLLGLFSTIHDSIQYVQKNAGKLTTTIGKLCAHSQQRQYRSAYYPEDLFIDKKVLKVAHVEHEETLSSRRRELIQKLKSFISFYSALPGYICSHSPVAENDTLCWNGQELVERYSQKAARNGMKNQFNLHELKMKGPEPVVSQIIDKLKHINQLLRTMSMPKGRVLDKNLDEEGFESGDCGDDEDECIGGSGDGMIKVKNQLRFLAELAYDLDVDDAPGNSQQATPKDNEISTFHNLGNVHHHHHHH
Assay: SPR, Biacore T100, GPC3-His immobilised, 1:1 fit
assay-readout: Kd (nM)

1. ADX_6077_F02 DG→AG mutant, alkylated (designed binder, C-terminal cysteine alkylated, also called P1-055669) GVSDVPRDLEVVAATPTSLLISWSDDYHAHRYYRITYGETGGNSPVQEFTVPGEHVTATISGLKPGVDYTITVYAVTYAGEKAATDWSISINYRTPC :: 23.7
2. ADX_6077_F02 DG→DL mutant, alkylated (designed binder, C-terminal cysteine alkylated, also called P1-055671) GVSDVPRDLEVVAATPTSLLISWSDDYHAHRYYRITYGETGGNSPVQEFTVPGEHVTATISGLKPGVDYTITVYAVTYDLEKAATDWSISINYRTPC :: 21.9
3. ADX_6077_F02 DG→DV mutant, alkylated (designed binder, C-terminal cysteine alkylated, also called P1-055672) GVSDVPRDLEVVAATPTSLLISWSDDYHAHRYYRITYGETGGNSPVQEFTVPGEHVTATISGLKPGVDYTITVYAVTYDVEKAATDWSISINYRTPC :: 43.5
4. ADX_6077_F02 DG→DA mutant, alkylated (designed binder, C-terminal cysteine alkylated, also called P1-055660; PI-055660) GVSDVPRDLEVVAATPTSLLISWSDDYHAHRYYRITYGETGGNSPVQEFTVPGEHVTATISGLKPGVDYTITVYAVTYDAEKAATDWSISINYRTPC :: 25.4
